molecular target: cathepsin-B (Homo sapiens); experiment: In vitro antiprotease activity; format: biochemical; details: 15 min preincubation; read-out: mean IC50 against Cathepsin-B (converted)
OBSERVED PROPERTY: log10 IC50 (log10 of the value in µM)
Values reflect log10 of reported IC50 (µM).

Q) Find the measured log10 IC50 of Cc1nc2ccccc2c(=O)n1/N=C/c1ccc2ccccc2c1 and report it.
A) 2.06

Q) Given the molecule Cc1ccc2nc(SCC(=O)Nc3c(C)cccc3C)n(-c3ccccc3)c(=O)c2c1 [Compound 15d] , write its reported log10 IC50.
A) 0.97

Q) Look up and state reported log10 IC50 for COc1cc(-n2c(C)nc3ccc(F)cc3c2=O)cc(OC)c1OC
A) 1.50

Q) Identify the reported log10 IC50 for the following entry. Cc1ccc2nc(SCc3ccc(Cl)cc3)n(-c3ccccc3)c(=O)c2c1 [Compound 15b]
A) 1.54

Q) Tell me its log10 IC50 given Cc1nc2ccccc2c(=O)n1/N=C/N(C)C as the entry.
A) 2.08

Q) Give log10 IC50 for the following molecule: Cc1nc2ccc(Br)cc2c(=O)n1/N=C/c1ccc(-c2ccccc2)cc1
A) 0.53

Q) Annotate the molecule COc1cccc(/C=N/n2c(C)nc3ccccc3c2=O)c1[N+](=O)[O-] with its measured log10 IC50.
A) 0.84

Q) Identify measured log10 IC50 associated with Cc1nc2ccccc2c(=O)n1NC(=O)OCC(C)C
A) 1.91

----------
OBSERVED PROPERTY: IC50 (µM)
Report as a plain number; the unit µM is understood.

Q) Check xanthine oxidase (Homo sapiens, UniProt P47989) data and give IC50 for O=c1c2ccccc2nc(SCc2ccc(Cl)cc2)n1-c1ccccc1 [Compound 15a] .
A) 31.7

Q) # return IC50 of COc1cc(-n2c(C)nc3ccc(Cl)cc3c2=O)cc(OC)c1OC [Compound 5c] (system: xanthine oxidase (Homo sapiens, UniProt P47989))
Sequence (P47989 whole entry, species assumed): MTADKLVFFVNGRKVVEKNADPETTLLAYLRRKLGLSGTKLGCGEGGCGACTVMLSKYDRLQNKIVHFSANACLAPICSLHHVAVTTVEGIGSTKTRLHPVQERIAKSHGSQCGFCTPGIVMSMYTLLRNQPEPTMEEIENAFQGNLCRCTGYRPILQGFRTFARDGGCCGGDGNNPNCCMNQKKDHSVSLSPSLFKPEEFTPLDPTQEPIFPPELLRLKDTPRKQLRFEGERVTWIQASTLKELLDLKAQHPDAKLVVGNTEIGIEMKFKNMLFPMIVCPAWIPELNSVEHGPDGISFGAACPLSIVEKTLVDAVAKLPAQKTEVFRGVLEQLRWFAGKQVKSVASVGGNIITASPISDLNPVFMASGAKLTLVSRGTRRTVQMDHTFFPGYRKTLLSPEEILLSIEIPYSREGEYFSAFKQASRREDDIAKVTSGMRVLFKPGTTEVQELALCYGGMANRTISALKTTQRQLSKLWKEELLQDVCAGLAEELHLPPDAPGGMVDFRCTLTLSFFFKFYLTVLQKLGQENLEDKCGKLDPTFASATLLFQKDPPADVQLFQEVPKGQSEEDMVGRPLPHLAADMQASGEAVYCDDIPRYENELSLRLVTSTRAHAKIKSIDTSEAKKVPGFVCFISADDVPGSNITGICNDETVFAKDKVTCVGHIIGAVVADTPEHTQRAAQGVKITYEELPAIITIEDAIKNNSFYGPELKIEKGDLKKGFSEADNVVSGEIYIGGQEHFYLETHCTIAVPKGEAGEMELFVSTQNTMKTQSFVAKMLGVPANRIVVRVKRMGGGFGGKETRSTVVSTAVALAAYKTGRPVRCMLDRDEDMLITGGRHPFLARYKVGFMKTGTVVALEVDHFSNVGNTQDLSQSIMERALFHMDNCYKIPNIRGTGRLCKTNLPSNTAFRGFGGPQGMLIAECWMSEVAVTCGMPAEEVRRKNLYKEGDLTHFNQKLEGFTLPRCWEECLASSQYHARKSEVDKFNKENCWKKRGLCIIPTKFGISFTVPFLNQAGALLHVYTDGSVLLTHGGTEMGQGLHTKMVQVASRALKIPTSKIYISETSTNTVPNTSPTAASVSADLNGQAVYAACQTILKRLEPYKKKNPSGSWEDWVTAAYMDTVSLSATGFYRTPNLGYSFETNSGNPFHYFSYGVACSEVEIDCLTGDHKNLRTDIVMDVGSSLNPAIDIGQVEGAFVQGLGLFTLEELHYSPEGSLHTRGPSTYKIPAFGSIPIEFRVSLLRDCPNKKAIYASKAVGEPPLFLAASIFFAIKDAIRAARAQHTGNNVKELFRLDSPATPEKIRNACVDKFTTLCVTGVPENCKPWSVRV
A) 36

Q) Output reported IC50 of the compound Cc1cccc(NC(=O)CSc2nc3ccccc3c(=O)n2-c2ccccc2)c1C [Compound 15e] on xanthine oxidase (Homo sapiens, UniProt P47989).
A) 98.7

Q) State, for xanthine oxidase (Homo sapiens, UniProt P47989), measured IC50 of the compound listed here: Cc1nc2ccccc2c(=O)n1/N=C/c1ccc(-c2ccccc2)cc1 [Compound 8i]
A) 25

Q) For xanthine oxidase (Homo sapiens, UniProt P47989), give IC50 of the listed compound: COc1cc(-n2c(C)nc3ccccc3c2=O)cc(OC)c1OC [Compound 5a]
A) 22.2

----------
target: elastase; assay: In vitro antiprotease activity; assay type: biochemical; settings: 15 min preincubation
OBSERVED PROPERTY: mean IC50 against Elastase (µg/mL)
Answer in µg/mL, number only, no unit symbol.

Q) Annotate the compound Cc1nc2ccc(Br)cc2c(=O)n1/N=C/c1ccc(-c2ccccc2)cc1 with its measured mean IC50 against Elastase.
A) 9.00

Q) Indicate its recorded mean IC50 against Elastase; the compound in question is COc1cc(-n2c(C)nc3ccccc3c2=O)cc(OC)c1OC
A) 23.5

Q) Provide only the value of recorded mean IC50 against Elastase for O=c1c2ccccc2nc(SCc2ccc(Cl)cc2)n1-c1ccccc1 [Compound 15a]
A) 11.50

Q) State its mean IC50 against Elastase for this compound: Cc1nc2ccc(Br)cc2c(=O)n1/N=C/c1ccc(-c2ccccn2)cc1
A) 26.00

Q) Item Cc1ccc2nc(SCc3ccc(Cl)cc3)n(-c3ccccc3)c(=O)c2c1 [Compound 15b] : provide mean IC50 against Elastase
A) 0.65

Q) Specify reported mean IC50 against Elastase for the compound shown: Cc1ccc2nc(SCC(=O)Nc3c(C)cccc3C)n(-c3ccccc3)c(=O)c2c1 [Compound 15d]
A) 15.50

Q) For Cc1nc2ccccc2c(=O)n1/N=C/c1ccc2ccccc2c1 , write its mean IC50 against Elastase.
A) 32.50

Q) Identify mean IC50 against Elastase associated with the compound Cc1cccc(NC(=O)CSc2nc3ccccc3c(=O)n2-c2ccccc2)c1C [Compound 15e]
A) 31.50

Q) Tell us which mean IC50 against Elastase value is on record for COc1cc(-n2c(C)nc3ccc(F)cc3c2=O)cc(OC)c1OC
A) 0.70

Q) Specify measured mean IC50 against Elastase for Cc1nc2ccccc2c(=O)n1/N=C/c1ccc(-c2ccccn2)cc1 .
A) 32.00
